Entries and their GI50 values follow.
# System: OVCAR-3
# PROTOCOL DESCRIPTION: NCI tumour cell line growth inhibition, 48 h
The source made the active and inactive calls. Cut-off read from the data, not from the text of the source: active = GI50 up to about 1.1 µM and inactive = higher.

These solved cases illustrate the format of a correct answer.
{"COMPOUND": "CC(=O)OC1CC(n2cc(F)c(=O)[nH]c2=O)OC1CO (stereo unspecified)", "GI50": "13.5 µM (inactive)"}
{"COMPOUND": "Cc1cc2cc(Cl)ccc2nc1C(=O)c1ccccc1", "GI50": "> 100 µM (inactive)"}
{"COMPOUND": "O=Cc1cccc2ccc3ccccc3c12", "GI50": "12.9 µM (inactive)"}
{"COMPOUND": "C[C@]12CC[C@H]3[C@@H](CCC4=CC(=O)C=C[C@@]43OC(=O)C(F)(F)F)[C@@H]1CCC2=O", "GI50": "> 100 µM (inactive)"}

query: Any idea what its GI50 is? The compound is CC(=O)OC1[C@H]2c3cc4c(cc3CN3CCC(=C[C@@H]1O)C23)OCO4 (stereo partly specified)
result: > 100 µM (inactive)

query: Form field: reported GI50 of CC(C)(C)OC(=O)Cc1ccc2c(ccn2Cc2ccccc2)c1
result: 56.2 µM (inactive)

query: Request the reported GI50 associated with COC(=O)C1C=NNC1C(=O)OC (stereo unspecified)
result: > 100 µM (inactive)

query: Give its GI50 value. Item: CCOC(=O)/C=C(/C(=O)OCC)n1ccc(=O)[nH]c1=O
result: 3.59 µM (inactive)

query: What does the record list as GI50 for Ic1cccc(/C=C/CN2CCN(CCOC(c3ccccc3)c3ccccc3)CC2)c1 ?
result: 16.7 µM (inactive)

query: What does the record list as GI50 for CCc1cccc(CC)c1NC(=O)CC1SC(N)=NC1=O (stereo unspecified) ?
result: > 100 µM (inactive)

query: Dear colleague, I am looking for the recorded GI50 of the following compound: OC1CCN2Cc3ccccc3N=C12 (stereo unspecified)
result: > 100 µM (inactive)
